Kindly state pKi for each of the entries shown.
- assayedSystem: Cyclin-dependent kinase 2/cyclin E1 (Homo sapiens, UniProt P24941)
- assayDetails: inhibition of CDK2/Cyclin E
Give bare numbers, as −log10 of the molar value.

Observe how each entry below is paired with its result.
>  <inputSmiles>
Cc1nc2c(s1)-c1nc(Nc3ccc(C(F)(F)F)cc3)ncc1CC2

>  <assayedSystem>
Cyclin-dependent kinase 2/cyclin E1 (Homo sapiens, UniProt P24941)

>  <pKi>
6.80

$$$$
>  <inputSmiles>
Cc1nc2c(s1)-c1nc(Nc3ccccc3)ncc1CC2

>  <assayedSystem>
Cyclin-dependent kinase 2/cyclin E1 (Homo sapiens, UniProt P24941)

>  <pKi>
9.00

$$$$
>  <inputSmiles>
Cc1nc2c(s1)-c1nc(Nc3ccc(N4CCOCC4)cc3)ncc1CC2

>  <assayedSystem>
Cyclin-dependent kinase 2/cyclin E1 (Homo sapiens, UniProt P24941)

>  <pKi>
6.70

$$$$
>  <inputSmiles>
COc1ccc(Nc2ncc3c(n2)-c2sc(C)nc2CC3)cn1

>  <assayedSystem>
Cyclin-dependent kinase 2/cyclin E1 (Homo sapiens, UniProt P24941)

>  <pKi>
7.31

$$$$

Hi! Can you tell me pKi for each of these compounds?
1. Nc1nc2c(s1)-c1nc(Nc3ccccc3)ncc1CC2
2. Cc1nc2c(s1)-c1nc(Nc3ccc(N(C)C)cc3)ncc1CC2

Solution:
7.06
8.00

Batch: pKi for all items listed.
1. Cc1nc2c(s1)-c1nc(Nc3ccc([N+](=O)[O-])cc3)ncc1CC2
2. Cc1nc2ccc3cnc(Nc4ccccc4)nc3c2s1
3. Cc1nc2ccc3cnc(N(C)c4cccc([N+](=O)[O-])c4)nc3c2s1
4. CN(C)c1ccc(Nc2ncc3c(n2)-c2sc(N)nc2CC3)cc1
5. Cc1nc2c(s1)-c1nc(Nc3ccc(O)cc3)ncc1CC2

Solution:
1. 6.89
2. 7.62
3. 5.80
4. 7.51
5. 9.00

* * *

- assayedSystem: Cyclin-dependent kinase 7/ cyclin H (Homo sapiens, UniProt P50613)
- Sequence (P51946 whole entry): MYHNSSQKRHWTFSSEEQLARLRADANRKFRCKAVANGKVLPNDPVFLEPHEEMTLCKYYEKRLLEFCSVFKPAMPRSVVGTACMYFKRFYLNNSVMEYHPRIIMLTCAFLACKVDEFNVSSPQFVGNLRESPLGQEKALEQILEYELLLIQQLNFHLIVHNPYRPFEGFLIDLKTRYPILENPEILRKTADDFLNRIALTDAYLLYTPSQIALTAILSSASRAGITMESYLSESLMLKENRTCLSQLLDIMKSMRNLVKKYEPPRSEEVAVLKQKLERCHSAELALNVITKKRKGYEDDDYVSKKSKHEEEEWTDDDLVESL
- Sequence (P50613 whole entry): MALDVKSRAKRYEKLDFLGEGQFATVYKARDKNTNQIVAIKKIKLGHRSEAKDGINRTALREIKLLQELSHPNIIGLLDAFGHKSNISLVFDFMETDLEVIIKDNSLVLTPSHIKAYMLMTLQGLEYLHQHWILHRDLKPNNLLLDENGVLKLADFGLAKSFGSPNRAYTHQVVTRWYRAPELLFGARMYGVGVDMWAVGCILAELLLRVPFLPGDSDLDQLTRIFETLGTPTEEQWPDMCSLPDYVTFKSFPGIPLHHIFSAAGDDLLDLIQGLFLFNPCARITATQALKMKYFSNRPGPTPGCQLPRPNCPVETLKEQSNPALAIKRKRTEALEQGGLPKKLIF
- assayDetails: inhibition of CDK7/Cyclin H/MAT1
Could you please report measured pKi for the items listed next?
Answers are plain numbers, as −log10 of the molar value.

Before answering, review these 5 worked examples.
>  <inputSmiles>
Nc1nc2c(s1)-c1nc(Nc3ccccc3)ncc1CC2

>  <pKi>
5.92

$$$$
>  <inputSmiles>
Cc1nc2c(s1)-c1nc(N(C)c3cccc([N+](=O)[O-])c3)ncc1CC2

>  <pKi>
5.74

$$$$
>  <inputSmiles>
Nc1nc2c(s1)-c1nc(Nc3cccc([N+](=O)[O-])c3)ncc1CC2

>  <pKi>
6.85

$$$$
>  <inputSmiles>
Cc1nc2c(s1)-c1nc(Nc3ccccc3)ncc1CC2

>  <pKi>
5.66

$$$$
>  <inputSmiles>
COC(=O)c1ccc(Nc2ncc3c(n2)-c2sc(C)nc2CC3)cc1

>  <pKi>
5.20

$$$$

Problem: What reported pKi corresponds to Cc1nc2c(s1)-c1nc(Nc3ccc(O)cc3)ncc1CC2 on Cyclin-dependent kinase 7/ cyclin H (Homo sapiens, UniProt P50613)?
Solution: 6.52

* * *

- System: HeLa
- assayDetails: Antiproliferative activity against human HeLa cells after 72 hrs by MTT assay
- Format: functional, cell-based
valueKind: pIC50
Numbers only, as −log10 of the molar value.

Problem: Data request, read-out pIC50, for Cc1nc2c(s1)-c1nc(Nc3cccc([N+](=O)[O-])c3)ncc1CC2
Solution: 5.96
